Examples of compounds with documented inhibition follow.
- Target under test: Glutathione S-transferase omega-1 (Homo sapiens) (UniProt P78417)
- Sequence (P78417 whole entry, looked up): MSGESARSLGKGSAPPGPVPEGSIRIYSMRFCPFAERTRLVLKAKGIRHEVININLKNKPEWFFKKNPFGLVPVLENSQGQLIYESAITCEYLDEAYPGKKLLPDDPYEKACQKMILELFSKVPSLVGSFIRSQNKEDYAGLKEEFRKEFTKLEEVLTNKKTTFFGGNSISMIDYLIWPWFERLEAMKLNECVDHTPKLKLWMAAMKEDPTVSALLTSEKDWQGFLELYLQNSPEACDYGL
- Measurement description: inhibitors of recombinant GSTO1, primary screen, counter-screen for RBBP9 inhibitor project, biochemical, fluorescence polarization (AID 1974);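 also: 0% = GSTO1-1 with DMSO and 100% = wells lacking GSTO1-1 enzyme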
- Assay conditions: recombinant GSTO1, activity-based probe fluorescence polarization; at 5.96 µM; stronger effect = higher value
In all, about 300,000 compounds went through this assay and about 3,200 (1.1%) were called active. The entries come from a sample that favours actives as a whole.
Reported metric: inhibition (%)

| Compound | Unit of measure | Data value |
| --- | --- | --- |
| Cc1noc(C)c1C(=O)N1CCOCC1 | % | -8.26 |
| CCOC(=O)c1ccccc1C(=O)N1CCOCCOCCOCC1 | % | 0.47 |
| Cc1cccc(NC(=O)c2ccc(S(=O)(=O)N(C)CC3CCCO3)cc2)c1C (stereo not given) | % | -5.06 |
| CN1C(C(=O)NCc2ccco2)CC2Cn3c(nc4ccccc43)C21 (stereo not given) | % | 6.49 |
| Cn1c(NC(=O)c2ccccc2)nc2ccccc21 | % | 4.42 |
